# assayName: Lipophilicity, log D of the compound
# Format: physicochemical
# condition: octanol/water
Record form. Attribute: logD. Fill in for each entry.
Form rule: numeric answer, no unit written next to it.

// query Given Oc1cccc(F)c1-n1nc(OC2CCNCC2)c2ccccc21 , state its recorded logD.
// result 0.6

// query Given Oc1cccc(F)c1-n1nc(OC2CCNCC2)c2c1CCCC2 , state its recorded logD.
// result 0.3

// query Given Cc1ccc(O)c([C@H](CCN(C(C)C)C(C)C)c2ccccc2)c1 , state its recorded logD.
// result 1.8

// query Given O=c1ccc2c([C@@H](O)CNCCCCCCCCCN3CCC(Oc4nn(-c5c(O)cccc5F)c5c4CCCC5)CC3)ccc(O)c2[nH]1 , state its recorded logD.
// result 2.4

// query Given Fc1cccc(F)c1-n1nc(OC2CCNCC2)c2ccccc21 , state its recorded logD.
// result 1.4
